Value source: paper PMC10740061

Record form. Attribute: PappAtoB. Fill in for each entry.
Test system: Caco-2 monolayer
Method summary: Caco-2 monolayer transmembrane transport, apical to basolateral
Format: in vitro ADME, human
Test context: WD (wheat flour digested products) 400 µg/mL; 40 µM flavonoid; 6 h; A to B; mean ± SD (n = 3)
Marks after values point to notes of the source that are not given here.

Which value of PappAtoB has been reported for O=C1c2c(O)cc(O)cc2OC(c2ccc(O)c(O)c2)C1O (stereo not shown) [Taxifolin] in the records? 17.71 ± 0.43^b × 10^-6 cm/s

I am curious: what PappAtoB value has been reported for C[C@@H]1O[C@@H](Oc2c(-c3ccc(O)c(O)c3)oc3cc(O)cc(O)c3c2=O)[C@H](O)[C@H](O)[C@H]1O [Quercitrin] ? 9.61 ± 0.28^c × 10^-6 cm/s

What does the data say about its PappAtoB? Entry: COc1cc(-c2oc3cc(O)cc(O)c3c(=O)c2O[C@@H]2O[C@H](CO[C@@H]3O[C@@H](C)[C@H](O)[C@@H](O)[C@H]3O)[C@@H](O)[C@H](O)[C@H]2O)ccc1O [Isorhamnetin-3-O-rutinoside] 11.68 ± 0.07^c × 10^-6 cm/s

# lookup: PappAtoB of O=c1cc(-c2ccc(O)cc2)oc2c([C@@H]3O[C@H](CO)[C@@H](O)[C@H](O)[C@H]3O)c(O)cc(O)c12 [Vitexin] 15.54 ± 0.46^a × 10^-6 cm/s

Any idea what its PappAtoB is? The compound is O=C1c2c(O)cc(O)cc2O[C@H](c2cc(O)c(O)c(O)c2)[C@H]1O [Dihydromyricetin] 14.82 ± 0.15^a × 10^-6 cm/s

Requested field: PappAtoB. Item: O=c1c(O)c(-c2cc(O)c(O)c(O)c2)oc2cc(O)cc(O)c12 [Myricetin] 17.79 ± 0.03^c × 10^-6 cm/s

Query (compound): C[C@@H]1O[C@@H](O[C@H]2[C@H](Oc3cc(O)c4c(c3)O[C@H](c3ccc(O)cc3)CC4=O)O[C@H](CO)[C@@H](O)[C@@H]2O)[C@H](O)[C@H](O)[C@H]1O [Naringin] ; field requested: PappAtoB 2.38 ± 0.09^c × 10^-6 cm/s

Bench note: what PappAtoB did O=c1cc(-c2ccc(O)cc2)oc2cc(O)cc(O)c12 [Apigenin] show? 4.18 ± 0.06^c × 10^-6 cm/s

# get_value(readout='PappAtoB', item= O=C1C[C@@H](c2ccc(O)cc2)Oc2cc(O)cc(O)c21 [Naringenin] ) 11.15 ± 1.54^b × 10^-6 cm/s

Recorded PappAtoB of O=c1c(-c2ccc(O)cc2)coc2cc(O)cc(O)c12 [Genistein] , please. 22.89 ± 0.09^c × 10^-6 cm/s

Tell me the measured PappAtoB of O=c1cc(-c2ccccc2)oc2cc(O)c(O)c(O)c12 [Baicalein] , please. 3.79 ± 0.10^c × 10^-6 cm/s

Which PappAtoB is reported for this compound? OC[C@H]1O[C@@H](Oc2cc3c(O)cc(O)cc3[o+]c2-c2ccc(O)c(O)c2)[C@H](O)[C@@H](O)[C@@H]1O [Cyanidin-3-O-glucoside] 7.97 ± 0.06^a × 10^-6 cm/s

Bench note: what PappAtoB did COc1ccc(-c2coc3cc(O)ccc3c2=O)cc1 [Formononetin] show? 22.68 ± 0.95^b × 10^-6 cm/s

Using the record for COc1cc(-c2oc3cc(O)cc(O)c3c(=O)c2O)ccc1O [Isorhamnetin] , report its PappAtoB. 11.42 ± 0.91^c × 10^-6 cm/s

# get_value(readout='PappAtoB', item= COc1ccc([C@@H]2CC(=O)c3c(O)cc(O)cc3O2)cc1O [Hesperetin] ) 12.18 ± 0.53^c × 10^-6 cm/s

Looking for the measured PappAtoB of O=c1c(O)c(-c2ccccc2)oc2cc(O)cc(O)c12 [Galangin] , can you help? 12.01 ± 0.49^c × 10^-6 cm/s
